Source: ChEMBL document CHEMBL3098015

System: Escherichia coli
Assay: Antimicrobial activity against Escherichia coli ATCC 25922 after 24 hrs by broth microdilution method
Format: functional
Details: ATCC 25922, 24 h
Assign labels as follows, please: met for MIC99 below 8 µM; not met for MIC99 equal to or exceeding 8 µM.

Quick check: does O=C(O)c1cn(C2CC2)c2cc(N3CCN(C(=O)CN4CCN(C(c5ccccc5)c5ccccc5)CC4)CC3)c(F)cc2c1=O have MIC99 under 8 µM?
not met

Quick check: does O=C(O)c1cn(C2CC2)c2cc(N3CCN(C(=O)CN4CCN(c5ncccn5)CC4)CC3)c(F)cc2c1=O have MIC99 under 8 µM?
met

Quick check: does O=C(O)c1cn(C2CC2)c2cc(N3CCN(C(=O)CN4CCN(c5ccc(Cl)cc5)CC4)CC3)c(F)cc2c1=O have MIC99 under 8 µM?
met

Quick check: does CC(=O)N1CCN(CC(=O)N2CCN(c3cc4c(cc3F)c(=O)c(C(=O)O)cn4C3CC3)CC2)CC1 have MIC99 under 8 µM?
not met

Quick check: does CCN1CCN(CC(=O)N2CCN(c3cc4c(cc3F)c(=O)c(C(=O)O)cn4C3CC3)CC2)CC1 have MIC99 under 8 µM?
not met

Quick check: does CN(C)CCN1CCN(CC(=O)N2CCN(c3cc4c(cc3F)c(=O)c(C(=O)O)cn4C3CC3)CC2)CC1 have MIC99 under 8 µM?
met

Quick check: does O=C(O)c1cn(C2CC2)c2cc(N3CCN(C(=O)CN4CCN(c5ccc([N+](=O)[O-])cc5)CC4)CC3)c(F)cc2c1=O have MIC99 under 8 µM?
not met

Quick check: does CN1CCN(CC(=O)N2CCN(c3cc4c(cc3F)c(=O)c(C(=O)O)cn4C3CC3)CC2)CC1 have MIC99 under 8 µM?
not met

---

Test system: Staphylococcus aureus
Assay: Antimicrobial activity against Staphylococcus aureus ATCC 29213 after 24 hrs by broth microdilution method
Format: functional
Details: ATCC 29213, 24 h
ENDPOINT: log10 of MIC99 (log10 of the value in µM)
Each number you see is log10 of MIC99, and the unit inside the log is µM.

Please look at this compound and report its log10 of MIC99: CN(C)CCN1CCN(CC(=O)N2CCN(c3cc4c(cc3F)c(=O)c(C(=O)O)cn4C3CC3)CC2)CC1
0.88

Please look at this compound and report its log10 of MIC99: CC(c1ccccc1)N1CCN(CC(=O)N2CCN(c3cc4c(cc3F)c(=O)c(C(=O)O)cn4C3CC3)CC2)CC1 (configuration not stated)
0.25

Please look at this compound and report its log10 of MIC99: O=C(O)c1cn(C2CC2)c2cc(N3CCN(C(=O)CN4CCN(Cc5ccccc5)CC4)CC3)c(F)cc2c1=O
0.26

Please look at this compound and report its log10 of MIC99: N#Cc1ccc(N2CCN(CC(=O)N3CCN(c4cc5c(cc4F)c(=O)c(C(=O)O)cn5C4CC4)CC3)CC2)cc1
0.86

Please look at this compound and report its log10 of MIC99: CC(=O)N1CCN(CC(=O)N2CCN(c3cc4c(cc3F)c(=O)c(C(=O)O)cn4C3CC3)CC2)CC1
0.60

Please look at this compound and report its log10 of MIC99: O=C(O)c1cn(C2CC2)c2cc(N3CCN(C(=O)CN4CCN(c5ccccc5Cl)CC4)CC3)c(F)cc2c1=O
-0.36
